# SUBJECT OF TEST: huSTING (WT) (Homo sapiens, UniProt Q86WV6, H232R)
# Sequence (Q86WV6 with tags, fused parts or gaps H232R): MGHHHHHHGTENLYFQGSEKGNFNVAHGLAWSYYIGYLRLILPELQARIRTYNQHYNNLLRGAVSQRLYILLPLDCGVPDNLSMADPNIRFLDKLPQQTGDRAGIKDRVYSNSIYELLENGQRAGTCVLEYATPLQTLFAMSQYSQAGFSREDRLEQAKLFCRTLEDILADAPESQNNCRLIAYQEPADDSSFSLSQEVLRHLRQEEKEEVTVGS
# EXPERIMENT SUMMARY: Surface Plasmon Resonance (SPR) STING (WT)
# CONDITION NOTES: biotinylated STING on streptavidin chip, 8° C.; 50% occupancy as surrogate KD
# Description: To determine binding affinities (50% occupancy as a surrogate Ko for the two binding events occurring) from dose-response experiments, binding responses at equilibrium were fit to a Hill equation, where the Hill coefficient was floated (52). For single-cycle kinetic experiments, sensorgrams were fit to a two-step kinetic model in which two analyte molecules bind sequentially (Biacore T200 or S200 Evaluation Software).
READOUT: Kd (µM)

[A] NC(=O)c1ccc2[nH]c(-c3c(C(=O)O)sc4c(F)ccc(Br)c34)nc2c1
[B] COc1c(C(N)=O)ccc2nc(-c3c(C(=O)O)sc4cccc(Cl)c34)[nH]c12
[C] COc1c(C(N)=O)ccc2nc(-c3c(C(=O)O)sc4c(F)ccc(Br)c34)[nH]c12
[D] COc1c(C(N)=O)ccc2[nH]c(-c3c(C(=O)O)sc4c(Br)cnc(OC)c34)nc12
Query block: Could you put the items above in increasing order of their Kd? Submit the labels in the order that the ranking request calls for.
Result block: C, D, B, A
(C: 1.45 µM, D: 19.1 µM, B: 51 µM, A: 91 µM)

----------
# SUBJECT OF TEST: human HAQ isoform of STING (Homo sapiens, UniProt Q86WV6, G230A/H232R/R293Q/R71H)
# Sequence (Q86WV6 whole entry R71H/G230A/H232R/R293Q, canonical isoform): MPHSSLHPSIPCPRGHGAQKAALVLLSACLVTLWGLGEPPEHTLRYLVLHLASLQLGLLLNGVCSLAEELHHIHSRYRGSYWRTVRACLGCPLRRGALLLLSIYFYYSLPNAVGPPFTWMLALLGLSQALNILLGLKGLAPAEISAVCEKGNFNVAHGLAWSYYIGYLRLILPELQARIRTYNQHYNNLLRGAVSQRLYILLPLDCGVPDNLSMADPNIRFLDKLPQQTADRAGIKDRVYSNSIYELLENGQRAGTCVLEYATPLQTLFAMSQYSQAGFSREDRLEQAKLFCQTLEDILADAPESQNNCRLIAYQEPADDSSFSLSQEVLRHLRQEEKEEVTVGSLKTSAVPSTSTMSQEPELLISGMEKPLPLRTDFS
# EXPERIMENT SUMMARY: THP-1 STING Lucia ISG reporter cell line assay
# CONDITION NOTES: 24 h incubation, QUANTI-Luc luminescence; normalised to 40 μM ML RR-S2 CDA; read-out: EC50 THP-1 STING Lucia ISG cells
pEC50: −log10 of the molar value.
READOUT: pEC50

Query block: Name the recorded pEC50 of the compound listed here: NC(=O)c1ccc2[nH]c(-c3c(C(=O)O)sc4cccc(Cl)c34)nc2c1
Result block: 4.62

Query block: State its pEC50: COc1c(C(N)=O)ccc2nc(-c3c(C(=O)O)sc4cccc(Cl)c34)[nH]c12
Result block: 5.61

[I] NC(=O)c1ccc2[nH]c(-c3c(C(=O)O)sc4c(F)ccc(Br)c34)nc2c1
[II] COc1c(C(N)=O)ccc2[nH]c(-c3c(C(=O)O)sc4cccc(OC)c34)nc12
[III] CCOC(=O)c1sc2c(Br)cnc(OC)c2c1-c1nc2c(OC)c(C(N)=O)ccc2[nH]1
[IV] CCOC(=O)c1sc2cccc(Cl)c2c1-c1nc2c(Cl)c(C(N)=O)ccc2[nH]1
Query block: Hello, I need these entries ordered by pEC50, highest reading first. Thanks! Put the labels in the requested order and list them out.
Result block: IV, III, II, I

----------
# SUBJECT OF TEST: WT human STING isoform (Homo sapiens, UniProt Q86WV6, H232R)
# Sequence (Q86WV6 whole entry H232R, canonical isoform): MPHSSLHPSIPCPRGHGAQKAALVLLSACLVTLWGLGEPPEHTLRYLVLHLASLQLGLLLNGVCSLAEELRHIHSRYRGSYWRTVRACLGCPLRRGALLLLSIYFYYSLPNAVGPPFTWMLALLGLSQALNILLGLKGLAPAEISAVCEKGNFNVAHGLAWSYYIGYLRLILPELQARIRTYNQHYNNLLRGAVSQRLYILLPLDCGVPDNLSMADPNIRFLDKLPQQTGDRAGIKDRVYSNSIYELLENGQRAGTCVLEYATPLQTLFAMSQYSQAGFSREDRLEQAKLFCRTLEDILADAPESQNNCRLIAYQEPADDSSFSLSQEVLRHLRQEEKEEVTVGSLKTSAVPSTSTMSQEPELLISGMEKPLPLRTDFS
# EXPERIMENT SUMMARY: THP-1-Dual KI-hSTING-R232 reporter cell line assay
# CONDITION NOTES: 24 h incubation, QUANTI-Luc luminescence; normalised to 40 μM ML RR-S2 CDA; read-out: EC50 THP-1 Dual KI-hSTING-R232 cells
pEC50: −log10 of the molar value.
READOUT: pEC50

[I] CCOC(=O)c1sc2c(Br)cnc(OC)c2c1-c1nc2c(OC)c(C(N)=O)ccc2[nH]1
[II] COc1c(C(N)=O)ccc2nc(-c3c(C(=O)O)sc4cccc(Cl)c34)[nH]c12
Query block: Lower value of pEC50 belongs to which: I or II ? Kindly give the label for the entry you pick.
Result block: II
(II: 5.33, I: 5.56)

[I] COc1c(C(N)=O)cc(F)c2[nH]c(-c3c(C(=O)O)sc4c(F)ccc(Cl)c34)nc12
[II] NC(=O)c1ccc2[nH]c(-c3c(C(=O)O)sc4c(F)ccc(Br)c34)nc2c1
Query block: Name the one with the greater pEC50 value, either I or II as given. Provide the label of your selected option as the answer.
Result block: I

[a] CCOC(=O)c1sc2cccc(Cl)c2c1-c1nc2cc(C(N)=O)ccc2[nH]1
[b] NC(=O)c1ccc2[nH]c(-c3c(C(=O)O)sc4cccc(Cl)c34)nc2c1Cl
Query block: Looking at a and b , which one comes out lower in pEC50 terms? Write down the label attached to your selection.
Result block: a

[a] CCOC(=O)c1sc2c(F)ccc(Br)c2c1-c1nc2ccc(C(N)=O)c(OCC)c2[nH]1
[b] CCOC(=O)c1sc2cccc(Cl)c2c1-c1nc2c(Cl)c(C(N)=O)ccc2[nH]1
[c] CCOC(=O)c1sc2cccc(Cl)c2c1-c1nc2ccc(C(N)=O)c(OC)c2[nH]1
[d] CCOC(=O)c1sc2c(F)ccc(Cl)c2c1-c1nc2c(OC)c(C(N)=O)ccc2[nH]1
[e] CCOC(=O)c1sc2cccc(Cl)c2c1-c1nc2cc(C(N)=O)ccc2n1C (single isomer, unassigned)
Query block: Give the ascending ranking of the items by reported pEC50. A complete answer lists every label in the requested sequence.
Result block: e, a, d, c, b

[A] COc1c(C(N)=O)ccc2[nH]c(-c3c(C(=O)O)sc4cccc(OC)c34)nc12
[B] CCOC(=O)c1sc2c(F)ccc(Br)c2c1-c1nc2cc(C(N)=O)ccc2[nH]1
Query block: Compare A and B and name the one whose reported pEC50 is smaller. Please respond with the label that marks your chosen entry.
Result block: A

----------
# SUBJECT OF TEST: huSTING (HAQ) (Homo sapiens, UniProt Q86WV6, G230A/H232R/R293Q)
# Sequence (Q86WV6 with tags, fused parts or gaps G230A/H232R/R293Q): as the sequence (Q86WV6 with tags, fused parts or gaps H232R) above, with G100A, R163Q counted along it
# EXPERIMENT SUMMARY: Surface Plasmon Resonance (SPR) STING (HAQ)
# CONDITION NOTES: biotinylated STING on streptavidin chip, 8° C.; 50% occupancy as surrogate KD
READOUT: Kd (µM)

Please review the following examples before continuing.
Query block: Give Kd for COc1c(C(N)=O)ccc2nc(-c3c(C(=O)O)sc4cccc(Cl)c34)[nH]c12 tested on huSTING (HAQ) (Homo sapiens, UniProt Q86WV6, G230A/H232R/R293Q).
Result block: 3.1

Query block: Report Kd under test system huSTING (HAQ) (Homo sapiens, UniProt Q86WV6, G230A/H232R/R293Q) for COc1c(C(N)=O)ccc2[nH]c(-c3c(C(=O)O)sc4c(Br)cnc(OC)c34)nc12 .
Result block: 3.6

Query block: Would you please give the reported Kd of NC(=O)c1ccc2[nH]c(-c3c(C(=O)O)sc4c(F)ccc(Br)c34)nc2c1 with huSTING (HAQ) (Homo sapiens, UniProt Q86WV6, G230A/H232R/R293Q)?
Result block: 6.7

Query block: For huSTING (HAQ) (Homo sapiens, UniProt Q86WV6, G230A/H232R/R293Q), give Kd of the listed molecule: CCOc1c(C(N)=O)ccc2nc(-c3c(C(=O)O)sc4c(F)ccc(Br)c34)[nH]c12
Result block: 55.7

[I] NC(=O)c1ccc2[nH]c(-c3c(C(=O)O)sc4cccc(Cl)c34)nc2c1
[II] COc1c(C(N)=O)ccc2nc(-c3c(C(=O)O)sc4c(F)ccc(Br)c34)[nH]c12
Query block: Compare I and II by numeric Kd and name the larger one. The response must carry the label of the picked entry.
Result block: I
(I: 42 µM, II: 0.14 µM)

----------
# SUBJECT OF TEST: human HAQ isoform of STING (Homo sapiens, UniProt Q86WV6, G230A/H232R/R293Q/R71H)
# Construct: host or cells: THP-1 STING Lucia ISG cells
# EXPERIMENT SUMMARY: THP-1 STING Lucia ISG reporter cell line assay
# Type: cell-based
# CONDITION NOTES: 24 h incubation, QUANTI-Luc luminescence; normalised to 40 μM ML RR-S2 CDA; read-out: EC50 THP-1 STING Lucia ISG cells
# Protocol: THP-1 STING Lucia ISG cells (InvivoGen #thpl-isg) were cultured in RPMI-1640 containing 2 mM L-glutamine, 25 mM HEPES, 100 μg/mL Normocin (InvivoGen) and 10% heat-inactivated FBS. Cells were seeded at a density of 7×10^5 cells/mL, maintained at 37° C./5% CO2, and passaged every 3-4 days. […] Data analysis: Luminescence raw data was normalised % activity relative to the signal of the positive control wells and negative control wells which were not treated with compound. […]
READOUT: EC50 (nM)

Query block: Supply recorded EC50 for CCOC(=O)c1sc2cccc(Cl)c2c1-c1nc2cc(C(N)=O)cc(F)c2[nH]1 here.
Result block: 455

[a] CCOC(=O)c1sc2cccc(Cl)c2c1-c1nc2ccc(C(N)=O)c(OC)c2[nH]1
[b] COc1c(C(N)=O)ccc2nc(-c3c(C(=O)O)sc4c(F)ccc(Br)c34)[nH]c12
Query block: Which shows the larger EC50 value: a or b ? Answer format: the label of the selected item.
Result block: b
(b: 651 nM, a: 4.1 nM)
